- Test system: MCF-7
- Measurement notes: MTT screening assay, MCF-7
- Assay type: cell-based
- Condition context: Homo sapiens, MCF7, 72 h incubation
pIC50: −log10 of the molar value.
Measured property: pIC50

Molecule	Observed result
CO[C@@H]1N(C(=O)OC(C)(C)C)c2ccccc2[C@]12CN=C(Nc1ccc(NC3=NC[C@]4(S3)c3ccccc3N(C(=O)OC(C)(C)C)[C@@H]4OC)cc1)S2 [Compound 52a]	4.20
CC(C)(C)OC(=O)n1cc(CNC(=S)Nc2ccc(NC(=S)NCc3cn(C(=O)OC(C)(C)C)c4ccccc34)cc2)c2ccccc21 [Compound 48]	4.11

* * *

- System: MCF10A
- Measurement notes: MTT screening assay, MCF10A non-cancer cells
- Assay type: cell-based, human
- Condition context: Homo sapiens, MCF-10A; 72 h incubation, MTT, non-cancer cells
Measured property: IC50 (µM)
The answer is to be given in µM; state only the numeric part.

Some entries whose results are on file:
Molecule	Value units	IC50
CO[C@@H]1N(C(=O)OC(C)(C)C)c2ccccc2[C@]12CN=C(Nc1ccc(NC3=NC[C@]4(S3)c3ccccc3N(C(=O)OC(C)(C)C)[C@@H]4OC)cc1)S2 [Compound 52a]	µM	10.1
CC(C)(C)OC(=O)n1cc(CNC(=S)Nc2ccc(NC(=S)NCc3cn(C(=O)OC(C)(C)C)c4ccccc34)cc2)c2ccccc21	µM	67.3

Proceed to the following item.
Fill in: IC50 of CC(C)(C)OC(=O)n1cc(CNC(=O)Nc2ccc(NC(=O)NCc3cn(C(=O)OC(C)(C)C)c4ccccc34)cc2)c2ccccc21 is ___ 55.1

* * *

- System: Caco-2
- Measurement notes: MTT screening assay, Caco-2
- Type: cell-based
- Condition context: Homo sapiens, 72 h incubation
Measured property: IC50 (µM)

Compound	Value units	IC50
CC(C)(C)OC(=O)n1cc(CNC(=O)Nc2ccc(NC(=O)NCc3cn(C(=O)OC(C)(C)C)c4ccccc34)cc2)c2ccccc21	µM	8.6

P = CO[C@@H]1N(C(=O)OC(C)(C)C)c2ccccc2[C@]12CN=C(Nc1ccc(NC3=NC[C@]4(S3)c3ccccc3N(C(=O)OC(C)(C)C)[C@@H]4OC)cc1)S2 [Compound 52a]
Q = CC(C)(C)OC(=O)n1cc(CNC(=S)Nc2ccc(NC(=S)NCc3cn(C(=O)OC(C)(C)C)c4ccccc34)cc2)c2ccccc21
Smaller IC50 value, P vs Q ? Returns: label corresponding to the selected item. P
(P: 6.1 µM, Q: 51.7 µM)
